target: Menin/MLL (terbium chelate-labeled menin, FITC-MBM1 peptide) (Homo sapiens, UniProt O00255, T541A); construct: Menin (a.a. 1-610-6×his tag) was labeled with terbium cryptate as follows; assay: Menin/MLL homogenous time-resolved fluorescence (HTRF) assay; format: binding; conditions: averaged values over all measurements; read-out: Menin HTRF assay (IC50)
pIC50: −log10 of the molar value.
Endpoint Label: pIC50

1. Cn1cc(CN2CC[C@@H]3CN(c4ncnc5sc(CC(F)(F)F)cc45)C[C@@H]3C2)cn1 (single isomer, unassigned) [Compound 87] :: 7.70
2. FC(F)(F)Cc1cc2c(N3CCC4C3CCN4Cc3ccccc3)ncnc2s1 (centres unmarked) [Compound 2] :: 6.10
3. CC(C)(C)CC(=O)N1CCC(CN2CC[C@@H]3CN(c4ncnc5sc(CC(F)(F)F)cc45)C[C@@H]3C2)CC1 (single isomer, unassigned) [Compound 93] :: 7.70
4. O=C([C@@H]1CCCN1)N1CC[C@H]2CN(c3ncnc4sc(CC(F)(F)F)cc34)C[C@H]2C1 [Compound 83] :: 6.01
5. CC(C)CN1CC[C@H]2CN(c3ncnc4sc(CC(F)(F)F)cc34)C[C@H]21 (single isomer, unassigned) [Compound 28B] :: 5.60

###

Listed next: entries and their corresponding pIC50.
Target: Menin/MLL (menin, FITC-MBM1 peptide) (Homo sapiens, UniProt O00255, T541A)
Construct: 6xHis (C)
Sequence (O00255 with tags, fused parts or gaps T541A): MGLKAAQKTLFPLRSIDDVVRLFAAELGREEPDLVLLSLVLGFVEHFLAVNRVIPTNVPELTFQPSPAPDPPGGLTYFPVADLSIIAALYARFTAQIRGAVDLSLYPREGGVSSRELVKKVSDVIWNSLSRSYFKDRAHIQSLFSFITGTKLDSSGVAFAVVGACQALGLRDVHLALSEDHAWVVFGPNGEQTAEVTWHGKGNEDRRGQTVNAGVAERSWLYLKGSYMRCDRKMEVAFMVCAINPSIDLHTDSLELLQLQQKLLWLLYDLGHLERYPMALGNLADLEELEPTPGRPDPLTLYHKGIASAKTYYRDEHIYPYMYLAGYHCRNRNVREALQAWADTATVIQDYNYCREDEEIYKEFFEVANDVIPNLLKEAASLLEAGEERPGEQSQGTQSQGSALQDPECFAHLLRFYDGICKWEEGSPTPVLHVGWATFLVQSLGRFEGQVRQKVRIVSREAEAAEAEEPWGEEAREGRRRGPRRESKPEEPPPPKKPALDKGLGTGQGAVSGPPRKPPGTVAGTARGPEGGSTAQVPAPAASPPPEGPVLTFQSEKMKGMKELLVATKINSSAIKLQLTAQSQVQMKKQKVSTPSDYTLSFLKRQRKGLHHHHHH
Assay: Menin/MLL fluorescence polarization (FP) assay
Format: binding
Conditions: averaged values over all measurements; read-out: Menin FP assay (IC50)
Method: Pharmacological Part 1) Menin/MLL Fluorescence Polarization Assay […] Compound potencies were determined by first calculating % inhibition at each compound concentration according to equation 1: % inhibition=((HC−LC)−(FP^compound−LC))/(HC−LC))*100 (Eqn 1) Where LC and HC are the FP values of the assay in the presence or absence of a saturating concentration of a compound that competes with FITC-MBM1 for binding to menin, and FP^compound is the measured FP value in the presence of the test compound. […]
pIC50: −log10 of the molar value.
Endpoint Label: pIC50

1) Cn1cc(CN2CC3CCN(c4ncnc5sc(CC(F)(F)F)cc45)CC3C2)cn1 (stereo not drawn) [Compound 34] :: 6.11
2) O=S(=O)(c1ccccc1)N1CC[C@@H]2CN(c3ncnc4sc(CC(F)(F)F)cc34)CC[C@@H]21 [Compound 16] :: 5.82
3) FC(F)(F)Cc1cc2c(N3C[C@H]4CN(Cc5ccccc5)[C@H]4C3)ncnc2s1 [Compound 33] :: 5.92

###

target: Menin/MLL (terbium chelate-labeled menin, FITC-MBM1 peptide) (Homo sapiens, UniProt O00255, T541A); construct: Menin (a.a. 1-610-6×his tag) was labeled with terbium cryptate as follows; assay: Menin/MLL homogenous time-resolved fluorescence (HTRF) assay; assay type: binding; details: averaged values over all measurements; read-out: Menin HTRF assay (IC50)
As shown below, each of these compounds has a reported IC50 value.
Endpoint Label: IC50 (nM)

1. O=C([C@@H]1CC2(CC2)CN1)N1CC[C@H]2CN(c3ncnc4sc(CC(F)(F)F)cc34)C[C@H]2C1 (single isomer, unassigned) [Compound 82] :: 653
2. [CH3][Ge]([CH3])([CH3])[CH2]N1CCC2CN(c3ncnc4sc(CC(F)(F)F)cc34)CCC21 (stereo not shown) [Compound 15] :: 120
3. CC(CN1CC[C@@H]2CN(c3ncnc4sc(CC(F)(F)F)cc34)C[C@@H]2C1)C(F)(F)F (single isomer, unassigned) [Compound 47] :: 55
4. Cn1cc(CN2CC[C@H]3CN(c4ncnc5sc(CC(F)(F)F)cc45)C[C@H]32)cn1 [Compound 27B] :: 8990
5. CC(C)CN1CCC2CN(c3ncnc4sc(CC(F)(F)F)cc34)CCC21 (stereo not shown) [Compound 25] :: 546
6. FC(F)(F)Cc1cc2c(N3C[C@H]4CCN(Cc5cnsc5)C[C@H]4C3)ncnc2s1 (single isomer, unassigned) [Compound 52] :: 41
7. Fc1ccccc1CN1CC[C@H]2CN(c3ncnc4sc(CC(F)(F)F)cc34)CC[C@H]21 (single isomer, unassigned) [Compound 6] :: 476

Reference source: patent US10611778B2
